settings: 288.15 K; 35000 kPa; Liquid; Vibrating tube method
Numbers after ± are expanded uncertainties.
VALUE_KIND: mass density

given_smiles=Cc1ccc(C)s1 experimental_result="1014.81 ± 0.5 kg/m3"
given_smiles=c1ccsc1 experimental_result="1096.24 ± 0.53 kg/m3"
given_smiles=Cc1ccsc1 experimental_result="1050.8 ± 0.52 kg/m3"
given_smiles=Cc1cccs1 experimental_result="1050.32 ± 0.55 kg/m3"

###

conditions: 298.15 K; 2000 kPa; Liquid; Vibrating tube method
mass density values, listed per item
VALUE_KIND: mass density (kg/m3)

given_smiles=Cc1ccsc1 experimental_result=1017.57
given_smiles=Cc1ccc(C)s1 experimental_result=981.78
given_smiles=c1ccsc1 experimental_result=1060.32
given_smiles=Cc1cccs1 experimental_result=1016.39
